Target: GPR139 H187A^5×43 (Homo sapiens, UniProt Q6DWJ6, H187A)
Construct: mGluR5 signal peptide (N)
Sequence (Q6DWJ6 2-353 H187A limits assumed): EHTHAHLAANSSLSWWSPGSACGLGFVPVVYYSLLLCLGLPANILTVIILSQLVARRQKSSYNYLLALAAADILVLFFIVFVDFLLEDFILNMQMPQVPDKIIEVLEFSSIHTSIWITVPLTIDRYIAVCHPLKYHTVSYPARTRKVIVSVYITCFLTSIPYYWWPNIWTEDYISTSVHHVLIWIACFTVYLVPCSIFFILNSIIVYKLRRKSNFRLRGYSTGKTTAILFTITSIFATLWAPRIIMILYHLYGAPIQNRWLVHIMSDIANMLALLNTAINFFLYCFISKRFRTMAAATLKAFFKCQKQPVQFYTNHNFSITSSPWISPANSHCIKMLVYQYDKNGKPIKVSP
Test: Fluo-4 Ca2+-assay, GPR139 mutant H187A
Details: H187A mutant (surface expression 36% of WT)
Result type: EC50 (µM)
Number in µM, nothing else.

Give the reported value of EC50 for this record: C[C@@H](NC(=O)CNC(=O)c1cccc(Cl)c1)c1ccccc1 (racemic) [Compound 7c] 6.61

----------
Target: GPR139 L87A2x64 (Homo sapiens, UniProt Q6DWJ6, L87A)
Construct: mGluR5 signal peptide (N)
Assay: Fluo-4 Ca2+-assay, GPR139 mutant L87A
Details: L87A mutant
Result type: EC50 (µM)
Reply numerically in µM, unit not repeated.

# return recorded EC50 for input "COc1cc(OC)cc(C(=O)NNC(=O)Nc2cccc3ccccc23)c1" 0.479

----------
Biological target: GPR139 H251A6x58 (Homo sapiens, UniProt Q6DWJ6, H251A)
Construct: mGluR5 signal peptide (N)
Sequence (Q6DWJ6 2-353 H251A limits assumed): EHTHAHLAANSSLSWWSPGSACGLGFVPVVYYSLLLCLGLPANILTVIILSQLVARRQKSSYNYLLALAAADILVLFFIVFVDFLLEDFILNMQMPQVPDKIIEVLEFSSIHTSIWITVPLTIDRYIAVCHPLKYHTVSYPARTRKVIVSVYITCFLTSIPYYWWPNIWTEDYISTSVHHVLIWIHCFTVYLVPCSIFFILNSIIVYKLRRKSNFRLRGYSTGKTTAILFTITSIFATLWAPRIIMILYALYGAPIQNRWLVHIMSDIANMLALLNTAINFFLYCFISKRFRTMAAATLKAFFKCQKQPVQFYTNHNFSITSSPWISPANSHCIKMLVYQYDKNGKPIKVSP
Experiment: Fluo-4 Ca2+-assay, GPR139 mutant H251A
Conditions: H251A mutant
Result type: pEC50
// field semantics: pEC50 = negative decimal log of concentration (mol/L)

Tell me its pEC50 given "COc1cc(OC)cc(C(=O)NNC(=O)Nc2cccc3ccccc23)c1" as the entry. 6.09

----------
# EC50 listing for each entry below
Molecular target: GPR139 W241H^6×48 (Homo sapiens, UniProt Q6DWJ6, W241H)
Construct: mGluR5 signal peptide (N)
Experiment: Fluo-4 Ca2+-assay, GPR139 mutant W241H
Conditions: W241H mutant

Examples with their reported EC50 follow.
- COc1cc(OC)cc(C(=O)NNC(=O)Nc2cccc3ccccc23)c1: > 0.00794 mM
- C[C@@H](NC(=O)CNC(=O)c1cccc(Cl)c1)c1ccccc1 (racemic): > 0.1 mM
- N[C@@H](Cc1ccccc1)C(=O)O: > 31.6 mM

Entry "N[C@@H](Cc1c[nH]c2ccccc12)C(=O)O" needs its EC50 filled in; supply it. > 10 mM
